Tested on: 786-0 renal
Experiment: NCI tumour cell line growth inhibition, 48 h
metricName: TGI (µM)
API: value field is a number in µM; no unit string.

O=C1CS(=O)(=O)C(c2cccc(Oc3ccccc3)c2)N1c1ccccc1 (stereo not given) : 37.8

Now for the molecule whose TGI we want.
I am curious: what TGI value has been reported for COc1cc(F)c(/C=C/c2cc(/C=C/c3cc(OC)c(OC)cc3F)n(-c3cc(F)cc(F)c3)n2)cc1OC ?
3.22

---

Tested on: CCRF-CEM leukemia
Test: NCI tumour cell line growth inhibition, 48 h
metricName: TGI

A selection of reference data follows.
CCNNC(=O)[C@@H]1[C@H](c2cc(OC)c(OC)c(OC)c2)c2cc3c(cc2[C@H](O)[C@H]1CO)OCO3 : > 100 µM
Cc1c2ccccc2c(C)n2c1nc1ccccc12 : 60.5 µM
CN(CC(=O)O)Cc1oc(CO)cc(=O)c1O : > 100 µM
CCN(CC)CCOc1ccc(C(O)(Cc2ccc(OC)cc2)c2ccccc2)cc1 (configuration not stated) : 44.9 µM
CCOC(=O)CCC(NC(=O)Cc1ccc(Oc2nc3ccccc3nc2-c2ccccc2)cc1)C(=O)OCC (configuration not stated) : > 100 µM
CNC(=S)NNc1ncnc2c1ncn2-c1ccc(C)cc1 : > 100 µM
COc1cc2c(cc1OC)[C@@](C)(C(O)C(O)C(C)(C)O)NCC2 (some centres not stated) : > 100 µM
CCCc1nnc2sc(COc3cc(Cl)c(OCc4nn5c(CCC)nnc5s4)cc3Cl)nn12 : 46.8 µM
CC(=O)OC(C)(C)CCC(=O)[C@](C)(O)[C@H]1[C@H](O)C[C@@]2(C)[C@@H]3CC=C4C(C)=C(OC5OC(CO)C(O)C(O)C5O)C(=O)C[C@@H]4[C@]3(C)C(=O)C[C@]12C (some centres not stated) : > 100 µM
OCC(O)C(O)C(O)c1nn(-c2ccccc2)c2nc3cc(Cl)c(Cl)cc3nc12 (configuration not stated) : > 100 µM

Consider the molecule CC12CCC(C(=Nc3cc(C(F)(F)F)cc(C(F)(F)F)c3)C1=O)C2(C)C (configuration not stated) and give its measured TGI.
> 100 µM

What about Nc1ccc(C(OC(=O)c2cc3ccccc3c(Cc3c(O)c(C(=O)OC(c4ccc(N)cc4)(c4ccc(N)cc4)c4ccc(N)cc4)cc4ccccc34)c2O)(c2ccc(N)cc2)c2ccc(N)cc2)cc1 ?
> 100 µM

And the next one, COc1ccc(N=C2C(=Nc3ccc(OC)cc3)N(c3ccc(N(C)C)cc3)C(=S)N2c2ccc(OC)cc2)cc1 ?
> 100 µM

Thanks! And COC(=O)[C@]12CC[C@@H](C)[C@H](C)[C@@H]1C1=CC[C@@H]3[C@@]4(C)C(C=O)=C[C@@](C)(COS(C)(=O)=O)C4[C@H](O)C[C@@]3(C)[C@]1(C)CC2 (some centres not stated) ?
3.22 µM

Would you kindly repeat that for O=c1cccccc1[O-].O=c1cccccc1[O-].O=c1cccccc1[O-].[Ce+3] ?
> 100 µM

Another: CCC1(NC(=O)c2cc(F)c(F)c(F)c2F)C(=O)NC(=O)N(C(C)C)C1=O (configuration not stated)
75.3 µM

// repeat for COc1ccc2[nH]c(C(=O)N3CC(CCl)c4c3cc(N)c3ccccc43)cc2c1 (configuration not stated) and report
0.0681 µM
